Source of measurements: patent US8637665B2

System: HOP 62 (lung cancer) cell line
Assay: cells
Format: cell-based
Conditions: human, 48 h
CC50 overview

- COMPOUND: "COc1cc2c(cc1OCCCCN1CCN(CCCCOc3ccc(-c4nc5ccccc5s4)cc3)CC1)N=C[C@@H]1CCCN1C2=O [Compound 9e]"
  TEST SYSTEM: "HOP 62 (lung cancer) cell line"
  CC50, µM: 27
- COMPOUND: "COc1cc2c(cc1OCCCCN1CCN(CCCCOc3ccc(-c4nc5ccccc5s4)cc3)CC1)N=C[C@@H]1CCCN1C2=O [Compound 9l]"
  TEST SYSTEM: "HOP 62 (lung cancer) cell line"
  CC50, µM: 2.5

###

System: PC 3 (prostate cancer) cell line
Assay: cells
Format: cell-based
Conditions: human, 48 h

- SMILES NOTATION: "COc1cc2c(cc1OCCCCN1CCN(CCCCOc3ccc(-c4nc5ccccc5s4)cc3)CC1)N=C[C@@H]1CCCN1C2=O"
  TEST SYSTEM: "PC 3 (prostate cancer) cell line"
  UNIT OF MEASUREMENT: "nM"
  CC50: 2500

###

System: duplex-form calf thymus DNA (CT-DNA)
Test: Thermal denaturation studies with calf thymus DNA (DNA binding affinity)
Details: [PBD]:[DNA] 1:5; CT-DNA 100 μM, ligand 20 μM; pH 7.00; 18 h
ΔTm after incubation at 37° C. for 18 h values, listed per item

- COMPOUND: "COc1cc2c(cc1OCCCCN1CCN(CCCCOc3ccc(-c4nc5ccccc5s4)cc3)CC1)N=C[C@@H]1CCCN1C2=O [Compound 9e]"
  TEST SYSTEM: "duplex-form calf thymus DNA (CT-DNA)"
  ΔTm after incubation at 37° C. for 18 h / °C: 12.6
- COMPOUND: "COc1cc2c(cc1OCCCN1CCN(CCCOc3cccc(-c4nc5ccccc5s4)c3)CC1)N=C[C@@H]1CCCN1C2=O"
  TEST SYSTEM: "duplex-form calf thymus DNA (CT-DNA)"
  ΔTm after incubation at 37° C. for 18 h / °C: 11.5
- COMPOUND: "COc1cc2c(cc1OCCCN1CCN(CCCOc3ccc(-c4nc5ccccc5s4)cc3)CC1)N=C[C@@H]1CCCN1C2=O"
  TEST SYSTEM: "duplex-form calf thymus DNA (CT-DNA)"
  ΔTm after incubation at 37° C. for 18 h / °C: 10.8
- COMPOUND: "COc1cc(-c2nc3ccccc3o2)ccc1OCCCN1CCN(CCCOc2cc3c(cc2OC)C(=O)N2CCC[C@H]2C=N3)CC1"
  TEST SYSTEM: "duplex-form calf thymus DNA (CT-DNA)"
  ΔTm after incubation at 37° C. for 18 h / °C: 10.3
- COMPOUND: "COc1cc(-c2nc3ccccc3s2)ccc1OCCCN1CCN(CCCOc2cc3c(cc2OC)C(=O)N2CCC[C@H]2C=N3)CC1"
  TEST SYSTEM: "duplex-form calf thymus DNA (CT-DNA)"
  ΔTm after incubation at 37° C. for 18 h / °C: 12.7
- COMPOUND: "COc1cc2c(cc1OCCCCN1CCN(CCCCOc3cccc(-c4nc5ccccc5s4)c3)CC1)N=C[C@@H]1CCCN1C2=O [Compound 9n]"
  TEST SYSTEM: "duplex-form calf thymus DNA (CT-DNA)"
  ΔTm after incubation at 37° C. for 18 h / °C: 10.6
- COMPOUND: "COc1cc2c(cc1OCCCN1CCN(CCCOc3cccc(-c4nc5ccccc5o4)c3)CC1)N=C[C@@H]1CCCN1C2=O"
  TEST SYSTEM: "duplex-form calf thymus DNA (CT-DNA)"
  ΔTm after incubation at 37° C. for 18 h / °C: 10.2
- COMPOUND: "COc1cc2c(cc1OCCCCN1CCN(CCCCOc3ccc(-c4nc5ccccc5s4)cc3)CC1)N=C[C@@H]1CCCN1C2=O [Compound 9l]"
  TEST SYSTEM: "duplex-form calf thymus DNA (CT-DNA)"
  ΔTm after incubation at 37° C. for 18 h / °C: 11.8
- COMPOUND: "COc1cc2c(cc1OCCCN1CCN(CCCOc3ccc(-c4nc5ccc(F)cc5s4)cc3)CC1)N=C[C@@H]1CCCN1C2=O"
  TEST SYSTEM: "duplex-form calf thymus DNA (CT-DNA)"
  ΔTm after incubation at 37° C. for 18 h / °C: 10.7
- COMPOUND: "COc1cc(-c2nc3ccccc3s2)ccc1OCCCCN1CCN(CCCCOc2cc3c(cc2OC)C(=O)N2CCC[C@H]2C=N3)CC1 [Compound 9f]"
  TEST SYSTEM: "duplex-form calf thymus DNA (CT-DNA)"
  ΔTm after incubation at 37° C. for 18 h / °C: 15.9
- COMPOUND: "COc1cc2c(cc1OCCCN1CCN(CCCOc3ccc(-c4nc5ccccc5o4)cc3)CC1)N=C[C@@H]1CCCN1C2=O"
  TEST SYSTEM: "duplex-form calf thymus DNA (CT-DNA)"
  ΔTm after incubation at 37° C. for 18 h / °C: 9.7
- COMPOUND: "COc1cc2c(cc1OCCCCN1CCN(CCCCOc3ccc(-c4nc5ccc(F)cc5s4)cc3)CC1)N=C[C@@H]1CCCN1C2=O"
  TEST SYSTEM: "duplex-form calf thymus DNA (CT-DNA)"
  ΔTm after incubation at 37° C. for 18 h / °C: 12.6
- COMPOUND: "COc1cc2c(cc1OCCCCN1CCN(CCCCOc3cccc(-c4nc5ccccc5s4)c3)CC1)N=C[C@@H]1CCCN1C2=O [Compound 9h]"
  TEST SYSTEM: "duplex-form calf thymus DNA (CT-DNA)"
  ΔTm after incubation at 37° C. for 18 h / °C: 12.3
- COMPOUND: "COc1cc(-c2nc3ccccc3s2)ccc1OCCCCN1CCN(CCCCOc2cc3c(cc2OC)C(=O)N2CCC[C@H]2C=N3)CC1 [Compound 9m]"
  TEST SYSTEM: "duplex-form calf thymus DNA (CT-DNA)"
  ΔTm after incubation at 37° C. for 18 h / °C: 12.5
- COMPOUND: "COc1cc2c(cc1O)N=CC1CCCN1C2=O (stereo not drawn) [DC-81, reference compound]"
  TEST SYSTEM: "duplex-form calf thymus DNA (CT-DNA)"
  ΔTm after incubation at 37° C. for 18 h / °C: 0.7
